Biological target: Gamma-aminobutyric acid receptor subunit alpha-6 (Homo sapiens)
Sequence (Q16445 whole entry): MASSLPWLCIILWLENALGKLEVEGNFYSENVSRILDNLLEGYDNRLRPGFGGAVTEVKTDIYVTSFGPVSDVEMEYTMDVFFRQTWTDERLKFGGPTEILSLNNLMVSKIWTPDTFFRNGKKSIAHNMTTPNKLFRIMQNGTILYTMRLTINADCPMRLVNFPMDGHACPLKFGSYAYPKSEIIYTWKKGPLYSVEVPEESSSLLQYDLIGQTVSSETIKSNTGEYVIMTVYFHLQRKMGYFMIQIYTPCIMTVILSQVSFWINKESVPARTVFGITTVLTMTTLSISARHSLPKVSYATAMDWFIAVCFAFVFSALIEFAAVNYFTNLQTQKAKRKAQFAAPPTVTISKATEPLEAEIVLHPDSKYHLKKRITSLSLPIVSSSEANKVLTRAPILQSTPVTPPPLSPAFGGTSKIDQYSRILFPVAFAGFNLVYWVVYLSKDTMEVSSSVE
Experiment: Binding affinity to human recombinant GABAA alpha6 receptor assessed as inhibition constant incubated for 1 hrs by liquid scintillation counting analysis
// Ki lookup, one value per entry

Q) Retrieve Ki measured for "CC(C)(C)OC(=O)c1cc2c(cn1)[nH]c1ccccc12" and print it.
A) > 5000 nM

Q) Retrieve Ki measured for "C#Cc1ccc2[nH]c3cnc(C(=O)OC(C)(C)C)cc3c2c1" and print it.
A) 2000 nM

Q) Retrieve Ki measured for "CCCOc1cc2c(cn1)[nH]c1ccccc12" and print it.
A) > 1000 nM

Q) Retrieve Ki measured for "COc1ccc2c(c1)[nH]c1c2ncc2[nH]c3ccccc3c21" and print it.
A) > 10000 nM

Q) Retrieve Ki measured for "CCc1c(C(=O)OC)nc(C)c2[nH]c3cc(OC)c(OC)cc3c12" and print it.
A) 130 nM

Q) Retrieve Ki measured for "Clc1ccc2c(c1)[nH]c1c2ncc2[nH]c3ccccc3c21" and print it.
A) > 10000 nM

Q) Retrieve Ki measured for "CCCC(=O)c1cc2c(cn1)[nH]c1ccccc12" and print it.
A) > 3000 nM

Further cases:
Q) Retrieve Ki measured for "COC(=O)c1cc2c(cn1)[nH]c1ccc(NCc3ccccc3)cc12" and print it.
A) > 10000 nM
